Residues, ends and D or L forms follow the SMILES beside them. *: point of attachment. Boc = CC(C)(C)OC(=O)*
melting point by entry:

In plain terms, COC(=O)c1cscc1Nc1ccc(C(F)(F)F)cc1[N+](=O)[O-] has a documented melting point of 175 °C

In plain terms, CCOC(=O)CC(=O)c1ccc(Br)cc1Cl has a documented melting point of 34 °C

In plain terms, CC(C)(C)OC(=O)N1CCCC1C(=O)NC(Cc1ccccc1)C(=O)NCC(=O)O (stereo not drawn) (Boc-Pro-Phe-Gly-OH; configuration not given here) has a documented melting point of 98 to 100 °C

In plain terms, O=C(CC1CCCCCC1=O)c1ccccc1 (stereo not drawn) has a documented melting point of 42 to 44 °C

In plain terms, COCCOc1ccc(/C=C/COC(=O)NS(=O)(=O)NCCN2CCCC2)c(Oc2ncc(C(F)(F)F)cc2Cl)c1 has a documented melting point of 154 to 156 °C

In plain terms, CCCCCCCCCCCCCCCc1cccc(OCC(=O)O)c1 has a documented melting point of 96 °C

In plain terms, O=C(NC(=O)c1c(F)cccc1F)Nc1ccc2c(c1)SC(c1ccc(Cl)cc1Cl)O2 (stereo not drawn) has a documented melting point of 206 to 208 °C

---

melting point by entry:

Take a look at these entries with their results.
[
  {
    "compound": "CCOC(=O)C=C(C)C=CC=C(C)C=Cc1c(C)sc(C)c1C",
    "melting point": "88 to 89 °C"
  },
  {
    "compound": "CCOC(=O)C1CCN(CC2(C)Cc3c(C)c(N)c(C)c(C)c3O2)CC1 (stereo not drawn)",
    "melting point": "74 to 76 °C"
  },
  {
    "compound": "Cc1oncc1C(=O)Nc1ccc(N)cc1",
    "melting point": "123 to 128 °C"
  },
  {
    "compound": "COCC(=O)N1c2ccc(N3C[C@H](CNC(C)=O)OC3=O)cc2C[C@H]1C",
    "melting point": "174 to 175 °C"
  },
  {
    "compound": "O=C(O)c1ccccc1OCCN1CCC(c2cn(CC3CC3)c3cc(F)ccc23)CC1",
    "melting point": "97 °C"
  },
  {
    "compound": "Cc1oc(-c2ccccc2)nc1COc1ccc(CC(=O)O)cc1",
    "melting point": "181 to 183 °C"
  }
]

In plain terms, CC(C)N(O)C(=O)Nc1ccc(S(C)(=O)=O)cc1 has a documented melting point of 163 to 164 °C

In plain terms, CC=Cc1nc2c(C(F)(F)F)cccc2c(O)c1C(=O)Nc1nccs1 has a documented melting point of 265 °C

In plain terms, O=C(COc1ccc(CCC(=O)C(F)(F)F)cc1)NC(c1ccc(Cl)cc1)c1ccc(Cl)cc1 has a documented melting point of 145 to 146 °C

In plain terms, CCNc1nc2c(N)nc(C)c(C)c2n1CC(C)C has a documented melting point of 168 to 170 °C

In plain terms, COC(=O)Nc1nc2cc(C(C3CC3)n3ccnc3)ccc2[nH]1 (stereo not drawn) has a documented melting point of 218 °C

---

measurement label: melting point

[
  {
    "molecule": "Cc1ccc(-c2cn(C)cc(-c3ccccc3)c2=O)c(C)c1",
    "observed measurement": "153 to 155 °C"
  }
]

In plain terms, CCC1(O)NC(=O)C2(c3ccc(Cl)cc3)CC12 (stereo not given) has a documented melting point of 117 to 124 °C

In plain terms, NS(=O)(=O)c1ccc(-n2nc(C=NOCc3ccccc3)cc2-c2ccc(Cl)cc2)cc1 has a documented melting point of 158 to 159 °C

In plain terms, CC1(C)Oc2ccc(C#N)cc2[C@@H](NC=O)[C@@H]1OC=O (relative stereo) has a documented melting point of 171 to 172 °C

In plain terms, NCCc1ccc(Nc2ncc3c(n2)-c2ccccc2C(c2cccc(Br)c2)C3)cc1 (stereo not given) has a documented melting point of 115 to 117 °C

---

melting point by entry:

Take a look at these entries with their results.
[
  {
    "compound": "Nc1ccc2c(c1)C(=O)N(c1cccc(C(=O)O)c1)C2=O",
    "observed measurement": "306 to 308 °C"
  },
  {
    "compound": "Cc1cc(-n2cncn2)c2cccc(OCc3c(Cl)ccc(S(=O)(=O)N4CCC[C@H]4C(=O)NCC4CCN(Cc5ccccn5)CC4)c3Cl)c2n1",
    "observed measurement": "118 °C"
  },
  {
    "compound": "BrCc1ccc2c(c1)CCO2",
    "observed measurement": "57 to 60 °C"
  }
]

In plain terms, O=C(O)CCn1c(=O)c2ccccc2n(CCCCN2CCC(OC(c3ccccc3)c3ccccc3)CC2)c1=O has a documented melting point of 107 to 108 °C

In plain terms, CC(C)=CCOC(C)C1CC=C2C3=C(CCC21C)C1(C)CCC(O)C(C)(C)C1CC3 (centres undefined) has a documented melting point of 117 to 120 °C

In plain terms, N#Cc1ccc(-c2ccc(-c3cn4cc(C#N)ccc4n3)o2)cc1 has a documented melting point of 298 to 300 °C

In plain terms, CCc1oc2ccccc2c1C(=O)c1ccc(Br)c(S(N)(=O)=O)c1 has a documented melting point of 202 to 206 °C

In plain terms, CCCC(O)C1(c2onc(-c3ccc(O)cc3)c2-c2ccccc2)CC1 (centres undefined) has a documented melting point of 139 to 140 °C

In plain terms, CCOC(=O)C1=C(C)NC(C)=C(C(=O)OCC)C1c1cccc(F)c1 has a documented melting point of 149 to 150 °C

---

melting point by entry:

[
  {
    "molecule": "Cc1nnc2n1-c1ccc(Cl)cc1C(c1ccccc1Cl)=NN2Cc1ccncc1",
    "melting point": "195 to 196 °C"
  },
  {
    "molecule": "Clc1cc(Cc2c(Cl)cccc2Cl)nc(Cl)n1",
    "melting point": "106 to 107 °C"
  },
  {
    "molecule": "CCC(CC)C(NS(=O)(=O)c1ccc(Cl)c(Cl)c1)c1ccnn1-c1ccccc1 (stereo not drawn)",
    "melting point": "56 to 66 °C"
  },
  {
    "molecule": "Cc1c(CC(=O)NCCO[N+](=O)[O-])cc(-c2ccc(S(C)(=O)=O)cc2)n1-c1ccccc1",
    "melting point": "89 °C"
  },
  {
    "molecule": "O=C1c2ccccc2C(=O)N1CCc1cccc(C(F)(F)F)c1",
    "melting point": "69 to 71 °C"
  }
]

In plain terms, CC(C)(C)OC(=O)COC1CCN(C(=O)CC(=O)Nc2ccc(C(N)=NO)cc2)CC1 has a documented melting point of 161 to 163 °C

In plain terms, Nc1ccc(-c2cn(CCF)nn2)cc1 has a documented melting point of 79 to 82 °C

In plain terms, CC(=O)NC(=N)NCC1CC2c3cccc4[nH]cc(c34)CC2N(C)C1 (stereo not drawn) has a documented melting point of 218 to 220 °C

In plain terms, CC(COc1ccc(C(N)=O)c(O)c1)NCC(O)c1ccccc1 (stereo not drawn) has a documented melting point of 171 to 173 °C

In plain terms, O=c1[nH]c2ccc(Br)cc2c(=O)n1CCCS has a documented melting point of 220 to 221 °C

In plain terms, O=C(N[C@H]1CC[C@H](CCN2CCN(c3nccc4c3CCO4)CC2)CC1)c1ccc(N2CCOCC2)nc1 has a documented melting point of 222 °C

In plain terms, COC(=O)CC[C@H](NC(=O)c1cn(C(c2ccccc2)(c2ccccc2)c2ccccc2)c(C#Cc2cnc3nc(NC(=O)C(C)(C)C)nc(O)c3c2)n1)C(=O)OC has a documented melting point of 93 to 95 °C

In plain terms, COc1ccccc1SCCCCCCCC(=O)O has a documented melting point of 62 to 63 °C

In plain terms, C=Cc1ccc(-c2ccccn2)cc1 has a documented melting point of 19.3 °C

In plain terms, O=S1(=O)NCN(C2CC2)c2c1ccc(F)c2Cl has a documented melting point of 141 to 143 °C

---

measurement label: melting point

Take a look at these entries with their results.
[
  {
    "compound": "CC(C)(Cn1cnc2c(N)nc3ccccc3c21)C(N)=O",
    "observed measurement": "287 to 289 °C"
  },
  {
    "compound": "N#CN=C(Nc1ccc(Cl)nc1)Oc1ccccc1",
    "observed measurement": "133 to 134 °C"
  },
  {
    "compound": "CCS(=O)(=O)C1(C(O)(Cn2cncn2)c2ccc(Cl)cc2)CC1 (stereo not given)",
    "observed measurement": "215 °C"
  },
  {
    "compound": "CC(=O)SCCC(=O)N1CCC=C1C(=O)O",
    "observed measurement": "89 to 91 °C"
  },
  {
    "compound": "O=c1[nH]c(=O)n(C2CC(Cl)C(CCl)O2)cc1C=CBr (stereo not given)",
    "observed measurement": "184 °C"
  },
  {
    "compound": "CC(C)NC(=O)c1cc2nc(C3CC3)n(C)c2c(Cl)c1NC(=O)c1cc(C(F)(F)F)nn1-c1ncccc1Cl",
    "observed measurement": "242 to 244 °C"
  }
]

In plain terms, CCc1cccc2[nH]c(=O)oc(=O)c12 has a documented melting point of 202 to 204 °C

In plain terms, FC(F)(F)c1ccc2nccc(N3CCN(C(=S)NCc4ccccc4)CC3)c2c1 has a documented melting point of 158 to 159 °C

In plain terms, CC(CO)c1ccc(-c2ccccc2)c(F)c1 (stereo not given) has a documented melting point of 61 to 63 °C

In plain terms, CC1(C)CCC(C)(C)c2cc(CC#Cc3ccc(C(N)=O)cc3)ccc21 has a documented melting point of 207 to 208 °C

In plain terms, COC(=O)CCc1ccc(-n2ncn(-c3ccc(C#N)cc3)c2=O)cc1 has a documented melting point of 213 to 215 °C

In plain terms, CCC(Oc1cccc([N+](=O)[O-])c1)C(=O)NCc1ccccc1 (stereo not given) has a documented melting point of 114 to 116 °C

In plain terms, Cc1c(NC(=O)c2ccc(-c3ccc(F)cc3)cc2)ccc2cc(CN3CCC(CCCC(=O)N4CCCCC4)CC3)cnc12 has a documented melting point of 154 to 156 °C

In plain terms, CC(C)c1cccc(C(C)C)c1NC(=O)CCCCCSc1nc2cnccc2[nH]1 has a documented melting point of 96 to 98 °C

In plain terms, COC(=O)CN(c1ccc(OC)cc1OC)S(N)(=O)=O has a documented melting point of 100 to 103 °C

In plain terms, CCCCCCC(C)(C)c1ccc(Br)c(OCc2ccccc2)c1 has a documented melting point of 58 to 59 °C

In plain terms, CC(C)n1nc(C#C[Si](C)(C)C)ccc1=O has a documented melting point of 61 to 62.5 °C

In plain terms, Cc1ccccc1NC(=O)C1(C)CCCCC1 has a documented melting point of 138 °C

In plain terms, COc1cccc2c(=O)c(-c3cccc(C(F)(F)F)c3F)nn(CCCNS(C)(=O)=O)c12 has a documented melting point of 62 to 64 °C
